Every entry's value here was drawn from ChEMBL document CHEMBL1138680.

Organism: Rattus norvegicus
assay.details: Inhibition of native TTX-S sodium currents in acutely dissociated rat dorsal root ganglion (DRG)
Assay type: functional
endpoint: Inhibition activity (µM)
Write the number in µM without appending the unit.

Consider the worked cases shown below.
Q: Fill in Inhibition activity for record O=C(NCCN1CCCCC1)c1ccc(-c2ccc(Oc3ccc(F)cc3)cc2)nc1
Result: 1

Q: Fill in Inhibition activity for record COc1cc(C(=O)NCCN(C)C)nc(-c2ccc(Oc3ccc(F)cc3)cc2)c1
Result: 0.18

Q: Fill in Inhibition activity for record Cc1cc(OCCN2CCCCC2)cc(-c2ccc(Oc3ccc(F)cc3)cc2)n1
Result: 0.14

Q: Fill in Inhibition activity for record NC(=O)N/N=C/c1ccc(Oc2ccc(F)cc2)cc1
Result: 0.25

Q: Fill in Inhibition activity for record NC(=O)N1c2ccccc2C=Cc2ccccc21 [CARBAMAZEPINE]
Result: 28

Next:
Q: Fill in Inhibition activity for record Nc1nnc(-c2cccc(Cl)c2Cl)c(N)n1
Result: 38.4

Q: Fill in Inhibition activity for record NC(=O)c1cc(N2CCOCC2)cc(-c2ccc(Oc3ccc(F)cc3)cc2)n1
Result: 0.06

Q: Fill in Inhibition activity for record NC(=O)c1cccc(-c2ccc(Oc3ccc(F)cc3)cc2)n1
Result: 0.1

Q: Fill in Inhibition activity for record Cc1cc(N(C)C)cc(-c2ccc(Oc3ccc(F)cc3)cc2)n1
Result: 0.53
